- System: A431
- assay.comment: LBPA endosome anti-LBPA integrated intensity (sum per cell), Z-score; higher = more LBPA staining
- particulars: compound concentration in added solution (µM; 5 µl added to 20 µl cells): 10; 18 h
Counter-ions that a name gives are not always drawn.
measured.attribute: LBPA endosome anti-LBPA integrated intensity (z-score)
Field format: numeric only.

Recorded results for 8 compounds are shown here.
>>> value_measured("O=c1[nH]c(=O)n([C@H]2C[C@H](O)[C@@H](CO)O2)cc1I")
-0.506
>>> value_measured("C[C@H]1[C@H](NC(=O)/C(=N\\OC(C)(C)C(=O)O)c2csc(N)n2)C(=O)N1S(=O)(=O)O")
-0.461
>>> value_measured("CNC(=O)c1c(I)c(C(=O)NCC(=O)Nc2c(I)c(C(=O)O)c(I)c(C(=O)NCCO)c2I)c(I)c(N(C)C(C)=O)c1I")
-0.421
>>> value_measured("COc1ccc(-c2cc(=O)c3c(O)cc(O[C@@H]4O[C@H](CO[C@@H]5O[C@@H](C)[C@H](O)[C@@H](O)[C@H]5O)[C@@H](O)[C@H](O)[C@H]4O)cc3o2)cc1O")
-0.501
>>> value_measured("C#C[C@]1(O)CC[C@H]2[C@@H]3[C@H](C)CC4=C(CCC(=O)C4)[C@H]3CC[C@@]21C")
-0.522
>>> value_measured("NS(=O)(=O)c1cc2c(cc1Cl)NCNS2(=O)=O [Hydrochlorothiazide]")
-0.538
>>> value_measured("N#Cc1ccc(C2CCCc3cncn32)cc1 (stereo not drawn) [Fadrozole hydrochloride]")
-0.639
>>> value_measured("CN(C)[C@@H]1C(O)=C(C(=O)NCNCCCC[C@H](N)C(=O)O)C(=O)[C@@]2(O)C(O)=C3C(=O)c4c(O)cccc4[C@@](C)(O)[C@H]3C[C@@H]12")
-0.193

Per the record, O=C(NCCNCC(O)COc1ccc(O)cc1)N1CCOCC1 (stereo not drawn) [Xamoterol hemifumarate] has LBPA endosome anti-LBPA integrated intensity (z-score) of -0.337

Per the record, CCN1CCCC1CNC(=O)c1cc(S(=O)(=O)CC)c(N)cc1OC (stereo not drawn) [Amisulpride] has LBPA endosome anti-LBPA integrated intensity (z-score) of -0.554

Per the record, "CCOC(=O)C1=C[C@]2(CC)CCCN3CCc4c(n1c1ccccc41)[C@@H]32" has LBPA endosome anti-LBPA integrated intensity (z-score) of -0.0891

Per the record, COC(=O)[C@@H]1[C@H]2C[C@H]3c4[nH]c5ccccc5c4CCN3C[C@@H]2CC[C@@H]1O [Yohimbine hydrochloride] has LBPA endosome anti-LBPA integrated intensity (z-score) of -0.468

###

- Tested on: HeLa MZ
- assay.comment: LBPA endosome anti-LBPA integrated intensity (sum per cell), Z-score; higher = more LBPA staining
- particulars: compound concentration in added solution (µM; 5 µl added to 20 µl cells): 10; 18 h
Counter-ions that a name gives are not always drawn.
Recorded LBPA endosome anti-LBPA integrated intensity (z-score) determines the group label, using bucket 1 = under -0.7, bucket 2 = from -0.7 up to -0.03, bucket 3 = -0.03 and over

>>> group("CC(C)(C)NC(=O)[C@H]1CC[C@H]2[C@@H]3CC[C@H]4NC(=O)C=C[C@]4(C)[C@H]3CC[C@]12C [Finasteride]")
"bucket 2"
>>> group("CC(=O)Oc1ccccc1C(=O)O")
"bucket 1"
>>> group("CN(C)CCCN1c2ccccc2Sc2ccc(Cl)cc21 [Chlorpromazine hydrochloride]")
"bucket 3"
>>> group("CCC1(c2ccccc2)C(=O)NCNC1=O")
"bucket 2"
>>> group("CCn1cc(C(=O)O)c(=O)c2ccc(C)nc21 [Nalidixic acid sodium salt]")
"bucket 1"

Exam item: Sort into band: C[N+]1(C)CCC(OC(=O)C(O)(c2ccccc2)C2CCCC2)C1 (stereo not given) [Glycopyrrolate]
Marked response: bucket 2

Exam item: Sort into band: COc1ccccc1OCC(O)COC(N)=O (stereo not given)
Marked response: bucket 2

Exam item: Sort into band: CC1(C)O[C@@H]2[C@@H](CO[C@@]3(COS(N)(=O)=O)OC(C)(C)O[C@@H]23)O1 [Topiramate]
Marked response: bucket 2

Exam item: Sort into band: "Nc1nnc(-c2cccc(Cl)c2Cl)c(N)n1"
Marked response: bucket 3

###

- System: A431
- assay.comment: LBPA endosome anti-LBPA integrated intensity (sum per cell), Z-score; higher = more LBPA staining
- particulars: compound concentration in added solution (µM; 5 µl added to 20 µl cells): 10; 18 h
Structures can show the parent of a compound that is named as a salt.
# LBPA endosome anti-LBPA integrated intensity (z-score) >= -0.5 gives Y, anything below gives N

>>> group("C[C@]12C=CC(=O)C=C1CC[C@H]1[C@@H]3C[C@@H](O)[C@](O)(C(=O)CO)[C@@]3(C)C[C@H](O)[C@@]12F [Triamcinolone]")
"Y"
>>> group("Nc1ccc(C(=O)NCC(=O)O)cc1 [Aminohippuric acid]")
"N"
>>> group("COc1cc([S+](C)[O-])ccc1-c1nc2cccnc2[nH]1 (stereo not given) [Sulmazole]")
"N"
>>> group("Cc1cnc(C(=O)O)c[n+]1[O-] [Acipimox]")
"Y"
>>> group("CC(=C(CCO)SSCC1CCCO1)N(C=O)Cc1cnc(C)nc1N (stereo in doubt) [Fursultiamine Hydrochloride]")
"Y"

Exam item: Item CCn1cc(C(=O)O)c(=O)c2cc(F)c(N3CCNCC3)nc21 [Enoxacin] with LBPA endosome anti-LBPA integrated intensity (z-score) of -0.5 or above?
Marked response: Y

Exam item: Item Cn1c(=O)c2nc[nH]c2n(C)c1=O [Theophylline monohydrate] with LBPA endosome anti-LBPA integrated intensity (z-score) of -0.5 or above?
Marked response: N

Exam item: Item "c1ccc2c(c1)CCCc1cc(NCCN3CCOCC3)nnc1-2" with LBPA endosome anti-LBPA integrated intensity (z-score) of -0.5 or above?
Marked response: N

Exam item: Item CCCc1cc(=O)[nH]c(=S)[nH]1 [Propylthiouracil] with LBPA endosome anti-LBPA integrated intensity (z-score) of -0.5 or above?
Marked response: N

###

- Tested on: A431
- assay.comment: LBPA endosome anti-LBPA integrated intensity (sum per cell), Z-score; higher = more LBPA staining
- particulars: compound concentration in added solution (µM; 5 µl added to 20 µl cells): 10; 18 h
Counter-ions that a name gives are not always drawn.
Recorded LBPA endosome anti-LBPA integrated intensity (z-score) determines the group label, using lower (below -0.4), middle (-0.4 to below -0.1), upper (-0.1 or more)

Example entries begin here.
>>> group("N=C(NCCCCCCNC(=N)NC(=N)Nc1ccc(Cl)cc1)NC(=N)Nc1ccc(Cl)cc1")
"lower"
>>> group("CCCCN1CCCCC1C(=O)Nc1c(C)cccc1C (stereo unspecified) [Bupivacaine hydrochloride]")
"middle"
>>> group("CCOC(=O)OC(C)OC(=O)[C@@H]1N2C(=O)[C@@H](NC(=O)[C@H](N)c3ccccc3)[C@H]2SC1(C)C (stereo partly specified) [Bacampicillin hydrochloride]")
"lower"
>>> group("CCN(CCO)CCCC(C)Nc1ccnc2cc(Cl)ccc12 (stereo unspecified) [Hydroxychloroquine sulfate]")
"upper"
>>> group("COc1ccc([C@@H]2CC(=O)c3c(O)cc(O[C@@H]4O[C@H](CO[C@@H]5O[C@@H](C)[C@H](O)[C@@H](O)[C@H]5O)[C@@H](O)[C@H](O)[C@H]4O)cc3O2)cc1O")
"lower"
>>> group("CC(C)NCC(O)COc1ccc(CCOCC2CC2)cc1 (stereo unspecified) [Betaxolol hydrochloride]")
"upper"
>>> group("CC(Oc1c(Cl)cccc1Cl)C1=NCCN1 (stereo unspecified)")
"lower"
>>> group("COC(=O)C1=C(C)NC(C)=C(C(=O)OC(C)C)C1c1cccc2nonc12 (stereo unspecified)")
"middle"
>>> group("CCOC1O[C@H]([C@@H](COCc2ccccc2)OCc2ccccc2)[C@H](OCc2ccccc2)[C@H]1O (stereo partly specified) [Tribenoside]")
"upper"

Pending compound:
Exam item: Sort into band: COc1ccc(CN(CCN(C)C)c2ccccn2)cc1 [Pyrilamine maleate]
Marked response: middle

###

- Tested on: HeLa MZ
- assay.comment: LBPA endosome anti-LBPA integrated intensity (sum per cell), Z-score; higher = more LBPA staining
- particulars: compound concentration in added solution (µM; 5 µl added to 20 µl cells): 10; 18 h
Counter-ions that a name gives are not always drawn.
measured.attribute: LBPA endosome anti-LBPA integrated intensity (z-score)

Recorded results for 6 molecules are shown here.
>>> value_measured("Cc1ccsc1/C=C/C1=NCCCN1C [Morantel tartrate]")
-0.0789
>>> value_measured("CC1(C)NC(=O)N(c2ccc([N+](=O)[O-])c(C(F)(F)F)c2)C1=O [Nilutamide]")
-0.349
>>> value_measured("O=C(COc1ccc(Cl)cc1)N1CCN(Cc2ccc3c(c2)OCO3)CC1 [Fipexide hydrochloride]")
0.298
>>> value_measured("CC[C@H]1OC(=O)[C@H](C)[C@@H](O[C@H]2C[C@@](C)(OC)[C@@H](O)[C@H](C)O2)[C@H](C)[C@@H](O[C@@H]2O[C@H](C)C[C@H](N(C)C)[C@H]2O)[C@](C)(OC)C[C@@H](C)C(=O)[C@H](C)[C@@H](O)[C@]1(C)O [Clarithromycin]")
0.332
>>> value_measured("Cc1ccc(S(=O)(=O)NC(=O)NN2CCCCCC2)cc1 [Tolazamide]")
-1.11
>>> value_measured("CCn1cc(C(=O)O)c(=O)c2cc(F)c(N3CCNC(C)C3)c(F)c21 (stereo not drawn) [Lomefloxacin hydrochloride]")
-1.53

Per the record, Cc1cc(-c2ccccc2)nnc1NCCN1CCOCC1 [Minaprine dihydrochloride] has LBPA endosome anti-LBPA integrated intensity (z-score) of -0.183

Per the record, COc1cc(OC)c(C(=O)CCCN2CCCC2)c(OC)c1 [Buflomedil hydrochloride] has LBPA endosome anti-LBPA integrated intensity (z-score) of 0.473
